# SYSTEM_TESTED: Aldose reductase (Rattus norvegicus)
# Construct: The crystalline lenses were homogenized in 135 mM sodium-potassium-phosphate buffer; from tissue; host or cells: crystalline lens of 6 week-old male Wistar rats (30,000 rpm supernatant)
# PROCEDURE_DETAILS: Aldose reductase activity measurement (in vitro), rat crystalline lens enzyme, NADP fluorescence
# Format: biochemical, Wistar male rats
# EXPERIMENTAL_PARAMETERS: 20 mM glucose substrate, 30 min, 30° C., pH 7.0, read-out: 50% inhibition concentration [IC50 (M)]
MEASURED_QUANTITY: IC50 (M)
Give the number; M is assumed, so skip it.

// worked examples, IC50 included
{"MOL_SMILES": "CC(C)Oc1cc(O)c2c(=O)cc(Sc3ccc(O)cc3)oc2c1", "IC50 / M": "2.3e-07"}
{"MOL_SMILES": "COc1cc(OC(C)C)cc2oc(Sc3ccc(O)cc3)cc(=O)c12", "IC50 / M": "8e-08"}
{"MOL_SMILES": "CC(C)Oc1cc(OC(C)C)c2c(=O)cc(Sc3ccc(O)cc3)oc2c1", "IC50 / M": "1.8e-08"}

// next entry
# input Could you share which IC50 value was measured for O=c1cc(Sc2ccc(O)cc2)oc2cc(O)cc(O)c12 ?
# output 3.2e-07

Every entry's value here was drawn from patent US5521216A.
